- System: 817829-284-R-J1-PDC complex spheroids, viability;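 note: spheroids exposed to agents for 7 days before readout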
- ASSAY PROCEDURE: Anticancer human tumor 817829-284-R-J1-PDC patient-derived colon adenocarcinoma cell line growth inhibition [GQUAD]; active = viability on the fitted dose curve at most 10% of control; inactive = the rest
- MEASUREMENT CONDITIONS: second compound 3.16 µM; first compound 3.16 µM
Possible outcomes: active, inactive

COMPOUND | LABEL VALUE
C=CC(=O)N1CCN(c2nc(=O)n(-c3c(C)ccnc3C(C)C)c3nc(-c4c(O)cccc4F)c(F)cc23)C(C)C1 (stereo not given) + CN(C)c1ccc(Nc2c3ccc(NC(=O)CCN4CCCC4)cc3nc3cc(NC(=O)CCN4CCCC4)ccc23)cc1 | inactive
CC(C)(O)C1CCC(Nc2ccc3ncc(-c4cccc(C(F)(F)F)c4)n3n2)CC1 (stereo not given) + Cc1cnc(CNC(=O)c2c(=O)c3ccc(N4CCCN(C)CC4)nc3n3c2sc2ccccc23)cn1 | active
CC1COCCN1c1cc(C2(S(C)(=N)=O)CC2)nc(-c2ccnc3[nH]ccc23)n1 (stereo not given) + Cc1[nH]c2ccc(F)cc2c1-c1nc2c3cccnc3c3ncccc3c2[nH]1 | active
COc1cc(C2c3cc4c(cc3C(OC3OC5COC(C)OC5C(O)C3O)C3COC(=O)C23)OCO4)cc(OC)c1O (stereo not given) + Cc1cnc(CNC(=O)c2c(=O)c3ccc(N4CCCN(C)CC4)nc3n3c2sc2ccccc23)cn1 | inactive
CC(C)(O)C1CCC(Nc2ccc3ncc(-c4cccc(C(F)(F)F)c4)n3n2)CC1 (stereo not given) + Cc1[nH]c2ccc(F)cc2c1-c1nc2c3cccnc3c3ncccc3c2[nH]1 | active

Cited source: PubChem BioAssay AID2060503
